assay: xn = mol fraction of the nth substance listed, in the solute-free solvent; conditions: 318.15 K; x2 = 0.6101
Value type: solubility (g/100 g solution)

>>> numeric_readout("CC(C)OC(=O)C(C)NP(=O)(OCC1OC(n2ccc(=O)[nH]c2=O)C(C)(F)C1O)Oc1ccccc1 (centres undefined) + CCO + O")
46.3

(P) Nc1cccc(S(=O)(=O)c2cccc(N)c2)c1 + CCO + O
(Q) Cc1[nH]c(=O)c(C#N)cc1-c1ccncc1 + CCO + O
(R) COc1cc2c(cc1OC)-c1cc3ccc(OC)c(OC)c3c[n+]1CC2.[Cl-] + CCO + O
Request: List items by solubility (g/100 g solution) in falling order. Give the order by naming the labels one after another as requested.
Result: R, P, Q

----------
experiment: xn = mol fraction of the nth substance listed, in the solute-free solvent; conditions: 313.15 K; x2 = 0.5
Value type: solubility (g/100 g solution)

Completed entries (count: 10):
>>> numeric_readout("Cc1ncc(C[n+]2csc(CCO)c2C)c(N)n1.O=[N+]([O-])[O-] + O + CC(C)O")
0.897
>>> numeric_readout("S=c1[nH]ncs1 + CCCO + O")
20.8
>>> numeric_readout("CC(N)C(=O)O (stereo unspecified) + O + CC(C)=O")
0.128
>>> numeric_readout("S=c1[nH]ncs1 + CO + O")
16.8
>>> numeric_readout("CC(N)C(=O)O (stereo unspecified) + O + CO")
1.39
>>> numeric_readout("CC(N)C(=O)O (stereo unspecified) + O + CCO")
0.573
>>> numeric_readout("S=c1[nH]ncs1 + CCO + O")
21.1
>>> numeric_readout("S=c1[nH]ncs1 + CC(C)=O + O")
34.8
>>> numeric_readout("Cc1ncc(C[n+]2csc(CCO)c2C)c(N)n1.O=[N+]([O-])[O-] + O + CO")
3.25
>>> numeric_readout("Cc1ncc(C[n+]2csc(CCO)c2C)c(N)n1.O=[N+]([O-])[O-] + O + CC(C)=O")
0.951

(1) OCCN(CCO)c1nc(N2CCCCC2)c2nc(N(CCO)CCO)nc(N3CCCCC3)c2n1 + CCO + O
(2) CCCCCOC(=O)Nc1nc(=O)n(C2OC(C)C(O)C2O)cc1F (stereo unspecified) + CCOC(C)=O + CCCCCCC
(3) OCCN(CCO)c1nc(N2CCCCC2)c2nc(N(CCO)CCO)nc(N3CCCCC3)c2n1 + CO + O
Request: List items by solubility (g/100 g solution) in falling order. Give the order by naming the labels one after another as requested.
Result: 1, 3, 2
(1: 15.2, 3: 2.54, 2: 0.411)

----------
test: xn = mol fraction of the nth substance listed, in the solute-free solvent; conditions: 318.15 K; x2 = 0.3698
Value type: solubility (g/100 g solution)

Completed entries (count: 2):
>>> numeric_readout("CC(C)OC(=O)C(C)NP(=O)(OCC1OC(n2ccc(=O)[nH]c2=O)C(C)(F)C1O)Oc1ccccc1 (centres undefined) + CCO + O")
37.7
>>> numeric_readout("COc1cc2c(cc1OC)-c1cc3ccc(OC)c(OC)c3c[n+]1CC2.[Cl-] + CCO + O")
6.39

(1) Nc1cccc(S(=O)(=O)c2cccc(N)c2)c1 + CCO + O
(2) Cc1[nH]c(=O)c(C#N)cc1-c1ccncc1 + CCO + O
Request: Given 1 and given 2 , which shows the smaller recorded solubility (g/100 g solution)? Answer = label.
Result: 2
